System: RKO
Assay: Cell proliferation, cell count by microscopy, HSA synergy (Examples 2-9)
Format: cell-based
Settings: Example 2, single agent, 72 h, cell count relative to DMSO

| compound | study.target | IC50 |
| --- | --- | --- |
| CC1(C)CCC(c2ccc(Cl)cc2)=C(CN2CCN(c3ccc(C(=O)NS(=O)(=O)c4ccc(N[C@H](CCN5CCOCC5)CSc5ccccc5)c(S(=O)(=O)C(F)(F)F)c4)cc3)CC2)C1 [COMPOUND C] | RKO | > 10 µM |

* * *

System: RKO
Assay: Cell proliferation, cell count by microscopy, HSA synergy (Examples 2-9)
Type: cell-based
Conditions: Example 3, single agent, 72 h, cell count relative to DMSO
pIC50: −log10 of the molar value.

| smiles.str | pIC50 |
| --- | --- |
| CC1(C)CCC(c2ccc(Cl)cc2)=C(CN2CCN(c3ccc(C(=O)NS(=O)(=O)c4ccc(N[C@H](CCN5CCOCC5)CSc5ccccc5)c(S(=O)(=O)C(F)(F)F)c4)cc3)CC2)C1 | < 5.00 |

Values were extracted from patent US20230398115A1.
